Quick reference: pIC50 of the listed items.
subject_of_test: RORγt (hRORC LBD) (Homo sapiens, UniProt P51449)
Sequence (P51449 269-508 limits assumed): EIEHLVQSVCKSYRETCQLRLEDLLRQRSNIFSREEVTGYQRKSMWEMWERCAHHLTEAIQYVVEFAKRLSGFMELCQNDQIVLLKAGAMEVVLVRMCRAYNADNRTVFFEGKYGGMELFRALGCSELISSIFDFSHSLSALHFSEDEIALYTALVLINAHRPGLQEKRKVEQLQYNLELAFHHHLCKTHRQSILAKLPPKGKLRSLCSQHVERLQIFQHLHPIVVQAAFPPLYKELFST
assay_explanation: RGA Assay: nuclear receptor transactivation assay, RORγt transactivation of a luciferase reporter
assay_context: transiently transfected HEK 293 cells, Gal4DBD hRORC LBD, 20-24 hours incubation
pIC50 here is simply -log10 of the concentration when that concentration is written in mol/L.

compound | assay_endpoint | readout_value
CNS(=O)(=O)c1ccc(CNC(=O)N2CC3(CCCC3)c3cc(-c4cc(S(=O)(=O)N(C)C)ccc4C)ccc32)cc1 [Example 13] | pIC50 | 6.08
CNS(=O)(=O)c1ccc(CNC(=O)N2CC3(CCCC3)c3cc(-c4ccccc4C(C)(C)O)ccc32)cc1 [Example 86] | pIC50 | 6.00
CCS(=O)(=O)c1ccc(CNC(=O)N2CC3(CCCC3)c3cc(-c4c(OC)nc(N(C)C)nc4C4CC4)ccc32)cc1 [Example 130] | pIC50 | 6.51
CCCC1(C)CN(C(=O)NCc2ccc(S(=O)(=O)NC)cc2)c2ccc(-c3ccc(F)cc3C)cc21 (stereo not shown) [Example 65] | pIC50 | 5.82
CNS(=O)(=O)c1ccc(CNC(=O)N2CC3(CCCC3)c3cc(-c4ccc(N)cc4C(=O)OC)ccc32)cc1 [Example 37] | pIC50 | 6.04

What the record says about CCS(=O)(=O)c1ccc(CNC(=O)N2CC3(CCCC3)c3cc(-c4c(OC)ncnc4C4CC4)ccc32)cc1 [Example 112] : pIC50 is 6.28

What the record says about CNS(=O)(=O)c1ccc(CNC(=O)N2CC3(CCCC3)c3cc(-c4cc(F)ccc4C(F)(F)F)ccc32)cc1 [Example 7] : pIC50 is 6.47

----------
subject_of_test: RORγt (hRORC LBD) (Homo sapiens)
Construct: expressed in transfected cells; host or cells: HEK 293 (transient cotransfection with pGL4.3 luc2P/GAL4UAS/Hygro reporter)
assay_explanation: RGA Assay: nuclear receptor transactivation assay, RORγt transactivation of a luciferase reporter
Format: cell-based
assay_context: transiently transfected HEK 293 cells, Gal4DBD hRORC LBD, 20-24 hours incubation
Quick reference: IC50 of the listed items.
Kindly provide the numeric value in µM only, without the unit symbol.

Example entries and their recorded answers appear below.
compound | unit_abbrev | readout_value
CCS(=O)(=O)c1ccc(CNC(=O)N2CC3(CCCC3)c3cc(-c4c(OC)nc(C)nc4C4CC4)ccc32)cc1 | µM | 1.1
CCS(=O)(=O)c1ccc(CNC(=O)N2CC3(CCCC3)c3cc(-c4c(OC)ncnc4OC)ccc32)cc1 | µM | 0.6
CNS(=O)(=O)c1ccc(CNC(=O)N2CC3(CCCC3)c3cc(-c4cccc(N5CCCC5)c4)ccc32)cc1 | µM | 1.6

What the record says about CCOC(=O)c1ccccc1-c1ccc2c(c1)C1(CCCC1)CN2C(=O)NCc1ccc(S(=O)(=O)NC)cc1 : IC50 is 1.3

What the record says about CNS(=O)(=O)c1ccc(CNC(=O)N2CC3(CCCC3)c3cc(-c4ccccc4C(F)(F)F)ccc32)cc1 : IC50 is 0.64

What the record says about CCS(=O)(=O)c1ccc(CNC(=O)N2CC3(CCCC3)c3cc(-c4c(C)ccnc4OC)ccc32)cc1 : IC50 is 0.5

What the record says about CCS(=O)(=O)c1ccc(CNC(=O)N2CC3(CCCC3)c3cc(-c4cc(CN5CCS(=O)(=O)CC5)ccc4C)ccc32)cc1 : IC50 is 1.4

What the record says about CCC1(C2CC2)CN(C(=O)NCc2ccc(S(=O)(=O)CC)cc2)c2ccc(-c3c(OC)ncnc3C3CC3)cc21 (stereo not shown) : IC50 is 0.47

What the record says about CCS(=O)(=O)c1ccc(CNC(=O)N2CC3(CCCC3)c3cc(-c4ccc(OC)cc4C(F)(F)F)ccc32)cc1 : IC50 is 0.41

What the record says about CNS(=O)(=O)c1ccc(CNC(=O)N2CC3(CCCC3)c3cc(-c4cncnc4C(C)C)ccc32)cc1 : IC50 is 1

What the record says about CNS(=O)(=O)c1ccc(CNC(=O)N2CC3(CCCC3)c3cc(-c4c(C)cccc4C)ccc32)cc1 : IC50 is 1

What the record says about CNS(=O)(=O)c1ccc(CNC(=O)N2CC3(CCCC3)c3cc(-c4ccccc4C(=O)OC)ccc32)cc1 : IC50 is 1.1

What the record says about CNS(=O)(=O)c1ccc(CNC(=O)N2CC3(CCCC3)c3cc(-c4c(C)cccc4C#N)ccc32)cc1 : IC50 is 0.87

What the record says about CCS(=O)(=O)c1ccc(CNC(=O)N2CC3(CCCC3)c3cc(-c4ccc(F)cc4C)ccc32)cc1 : IC50 is 1.2

What the record says about CCS(=O)(=O)c1ccc(CNC(=O)N2CC3(CCCC3)c3cc(-c4cc(F)ccc4CC#N)ccc32)cc1 : IC50 is 1.2

What the record says about Cc1cc(F)ccc1-c1ccc2c(c1)C1(CCCC1)CN2C(=O)NCc1ccc(S(C)(=O)=O)cc1 : IC50 is 1.3
